Source listed as ChEMBL document CHEMBL1201862.

Test system: CAKI-1
assay.protocol: NCI tumour cell line growth inhibition, 48 h
The source made the active and inactive calls. No stated cut-off is given here; in the data, active = GI50 up to about 1.1 µM and inactive = higher.
metric: GI50

Which GI50 value belongs to `COc1ccc(-c2nnc(CCCCCCCCc3nnc(-c4ccc(OC)cc4)n3N)n2N)cc1` ? > 100 µM (inactive)

For `Nc1nc(O)c2nc3c(nc2n1)C(=O)N(c1ccc(C(=O)O)cc1)C3` then? > 100 µM (inactive)

For c1ccc(COC[C@H]2O[C@@H](c3ccccc3)C[C@@H](OCc3ccccc3)C2OCc2ccccc2)cc1 (some centres not stated) then? > 10 µM (inactive)

For `CCc1n[nH]c(=O)n1/N=C/c1ccc(/C=N/n2c(CC)n[nH]c2=O)cc1` then? > 100 µM (inactive)

For `CN(C)NC1=C([N+](=O)[O-])C=NN(c2ccccc2)C1` then? 1.95 µM (inactive)

Next:
Which GI50 value belongs to `CCOC(=O)c1cc(I)c(-c2cc(C)no2)n1C` ? 20.3 µM (inactive)

For `O=c1c2sc3nc(NCCN4CCCCC4)ncc3c2ncn1-c1ccccc1` then? 33 µM (inactive)

* * *

Measured GI50 by item
System: M14
assay.protocol: NCI tumour cell line growth inhibition, 48 h
Calls of active or inactive are those of the source. Rule as the data show it: active = GI50 up to about 1.1 µM and inactive = higher.

Check out these entries, answers already filled in.
Which GI50 value belongs to O=C(OC(/C=C/c1ccccc1)P1(=O)N(Cc2ccccc2)[C@@H]2CCCC[C@H]2N1Cc1ccccc1)c1ccccc1 (stereo not given in full) ? 3.69 µM (inactive)

For `COC1(OC)CCCc2c1no[n+]2[O-]` then? > 100 µM (inactive)

For O=C1CC(c2cccc(Cl)c2)n2cccc21 (stereo not given) then? > 100 µM (inactive)

Next:
Which GI50 value belongs to `O=c1cc(-c2cc(O)c(O)c(-c3c(O)cc4oc(-c5ccc(O)c(O)c5)cc(=O)c4c3O)c2)oc2cc(O)cc(O)c12` ? > 25 µM (inactive)

For COC(=O)C1(CCC(C)=O)CCCCCC1=O (stereo not given) then? > 100 µM (inactive)

For `CC(=O)c1c2c(c3ccccc3c1O)O[C@@H]1OCC[C@H]21` then? > 100 µM (inactive)

For `COc1ccc(/C=C/C(=O)c2sc(-n3nc(-c4ccccc4)cc3-c3ccccc3)nc2C)cc1` then? > 10 µM (inactive)

For `O=C(/C=C/c1ccccc1)N1CCCCC1` then? > 100 µM (inactive)

For Cc1cc(C23OC4COC(C)(C)OC4C2OC(C)(C)O3)nc2ccccc12 (stereo not given) then? > 100 µM (inactive)

For `CCN(CC)CCn1c2ccccc2c(=O)c2c(O)ccc(O)c21` then? 42 µM (inactive)

* * *

Tested on: KM12
assay.protocol: NCI tumour cell line growth inhibition, 48 h
The source made the active and inactive calls. Cut-off read from the data, not from the text of the source: active = GI50 up to about 1.1 µM and inactive = higher.
Measured GI50 by item

Check out these entries, answers already filled in.
Which GI50 value belongs to COC(=O)C1=CC(=O)OC1(OO)c1ccc(Br)cc1 (stereo not given) ? > 100 µM (inactive)

For COC(=S)OC1CC(n2cnc3c(N)ncnc32)OC1CO[Si](C)(C)C(C)(C)C (stereo not given) then? 23.7 µM (inactive)

For `O=C1C=CC(=O)c2c1ccc1c3ccccc3n(CCCCCCCCCCCCn3c4ccccc4c4ccc5c(c43)C(=O)C=CC5=O)c21` then? > 100 µM (inactive)

Next:
Which GI50 value belongs to `COc1cc2c(cc1OC)[C@H]1C(=O)c3cc4c(cc3[C@H]1N(C)C2=O)OCO4` ? 36.6 µM (inactive)

For OCCN(CCO)c1nc(N2CCCCC2)c2nc(N(CCO)CCO)nc(N3CCCCC3)c2n1 [DIPYRIDAMOLE] then? 43 µM (inactive)
